Experiment: Selectivity ratio of IC20 for cytotoxicity against human MCF-10A cells expressing RECQL5 to IC20 for cytotoxicity against human MCF7 cells expressing RECQL5
Type: toxicity, cell-based
MEASURED_PROPERTY: selectivity ratio
I'd appreciate a reply containing only the number, no unit.

# input Provide measured selectivity ratio value, entry: O=C(Nc1cc(C(F)(F)F)cc(C(F)(F)F)c1)N[C@@H](c1ccccc1)c1nnc(SCc2ccccc2)o1
# output 4

* * *

Experiment: Inhibition of ds-DNA dependent human RECQL5 ATPase activity measured after 60 mins by luciferin-based multiplate reader method
MEASURED_PROPERTY: IC50

# input Answer with reported IC50 of O=C(Nc1cc(C(F)(F)F)cc(C(F)(F)F)c1)N[C@@H](c1ccccc1)c1nnc(SCc2ccccc2)o1
# output 23.9 µM

The reported numbers originate from ChEMBL document CHEMBL5038569.
